B1: TPR t1 (parent)
chain: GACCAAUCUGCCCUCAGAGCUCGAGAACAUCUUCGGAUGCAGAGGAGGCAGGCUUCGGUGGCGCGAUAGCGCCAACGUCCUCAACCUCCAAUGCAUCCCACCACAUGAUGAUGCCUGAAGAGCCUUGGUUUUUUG

Variants of: B1
TEST DETAILS: polymerase ribozyme fitness, log enrichment relative to wild type (log ratio); higher = more active; in vitro selection for triplet polymerase activity
Decide using polymerase ribozyme fitness (log ratio): a value greater than or equal to -2 is met, a smaller one is not met.

- SEQUENCE: "GACCAAUCUGCCCUCAGAGCUCGAGAACAUCUUCGGAUGCAGAGGAGGCAGGCUUCGGUGGCGCGGUAGCGCCAACGUCCUCAACCUCCAAUGCAUCCCACCACAUGAUGAUGCCUGAAGAGGCUUGGUUUUAUG [A66G C123G U133A]"
  GROUP: "met"

Query: Hi team, for GACCAAUCUGCCCUCAGUGCUCGAGAACAUCUUCGGAUGCAGUGGAGGCAGGCUUCGGUGGCGCGAUAGCGCCAACGUCCUCAACCUCCAAUGCAUCCCACCACAUGAUGAUGCCUGAAGAGCCUUGGUUUUUUG [A18U A43U] , is the recorded polymerase ribozyme fitness (log ratio) at or above -2?
Reply: met

Query: Determine whether measured polymerase ribozyme fitness (log ratio) meets or exceeds -2 for GACCAAUCUGCCCUCAGAGCUCGAGAACAUCUUCGGAUGCAGAGGAGCCAGGCUUCGGUGGCGCGAUAGCGCCAACGUCCUCAACCUCCAAUGCAUCCCACCACAUGAUGAUGCCUGAAGAGCCUUGGUUUUUUG [G48C]
Reply: met

Query: Record GACCAAUCUGUCCUCAGAGCUCGAGAACAUCUUCGGAUGCAGAGGAGGCAGGCUUCGGUGGCGCGAUAGCGCCAACUUCCUCAACCUCCAUUGCAUCCCACCACAUGAUGAUGCCUGAAGAGCCUUGGUUUUUUG [C11U G77U A91U] ; criterion: polymerase ribozyme fitness (log ratio) no lower than -2. Met?
Reply: met

Query: Check the entry GACCAAUCUGCCCUCAGAGCUCGAGAACAUCUUCGGAUGCAGAGGAGGCAGGCUUCGGUGGAGCGAUAGCGCCAACAUCCUCAACCUCCAAUGCAUCCCACCACAUGAUGAUGCCUGAAGAGCCUUGGUUUUUUG [C62A G77A] : does polymerase ribozyme fitness (log ratio) equal or exceed -2?
Reply: not met

Query: Is polymerase ribozyme fitness (log ratio) at least -2? Consider GACCAAUCUGCCCUCAGAGCUCGAGAACAUCUUCGGAUGCAGAGGAGGCAGGCUUCGGUGGCGCGAUAGCGCUAACGUCCUCAACCUCCAAUGCAUCCCACCACAUGAUGAUGCCUGAAGAGCCUUCGUUUUUUG [C73U G127C]
Reply: met

Query: Decide: is the reported value of polymerase ribozyme fitness (log ratio) for GAACAAUCUGCCCUCAGAGCUCGAGAACAUCUUCGGAUGCAGAGGAGGCAGGCUUCGGUGGCGCGAUAACGCCAACGUCCUCAACCUCCAAUGCAUCCCACCACAUGAUGAUGCCUGAAGAGCCUUGGUUUUUUG [C3A G69A] equal to or greater than -2?
Reply: not met

Query: Check this variant for polymerase ribozyme fitness (log ratio) at or above -2: GACCAAUGUGCCCUCAGAGCUCGAGAACAUCUUCGGAUGCAGAGGAGGCAGGCUUCGGUGGCUCGAUAGCGCCAACCUCCUCAACCUCCAAUGCAUCCCACCACAUGAUGAUGCCUGAAGAGCCUUGGCUUUUUG [C8G G63U G77C U129C]
Reply: not met

Query: Please indicate if the recorded polymerase ribozyme fitness (log ratio) for GACCAAUCUGCCCUCAGAGCUCGAGAACAUCUUCGGAUGCAGACGAGGCAGGCUUCGGUGGCGCGAUAGCGCCAACGUCCUCAACCUCCAAUGCAUCCCACGACAUGCUGAUGGCUGAAGAACCUUGGUUUUUUG [G44C C102G A108C C114G G122A] meets or exceeds -2.
Reply: not met
